Assay: Nuclear factor erythroid 2-related factor 2/antioxidant responsive element (Nrf2/ARE) small molecule agonists: luciferase reporter gene qHTS assay in human keratinocytes (AID 1919969); also: nearly all actives have a fitted effect of over 35% in size
Conditions: KeratinoSens HaCaT ARE-luciferase, luminescence, 24 h; series mostly up to 92.4 µM
Results filed as inconclusive are left out. Calls of active or inactive are those of the source. Calls follow the shape of the full dose curve.
Labels: active, inactive

• Cc1cccc(C)c1OCC(=O)N[C@@H](Cc1ccccc1)[C@@H](O)C[C@H](Cc1ccccc1)NC(=O)[C@H](C(C)C)N1CCCNC1=O = inactive
• CC(C)(C)N(CCO)CCO = inactive
• CCCCN(C)C = inactive
• O=C(Nc1ccc(Cl)c(Cl)c1)C1CC1 = inactive
• OC(CCN1CCCC1)(c1ccccc1)C1CCCCC1 (configuration not stated) = inactive
• COc1ccc(C2C(=O)c3ccccc3C2=O)cc1 = inactive
• CNS(=O)(=O)Cc1ccc2[nH]cc(CCN(C)C)c2c1 = inactive
• Cc1ccccc1N1CCN(CCc2nnc3n2CCCC3)CC1 = inactive
• O=C1CCCCCCCCCCOCCCCO1 = active
• O=C(O)CP(=O)(O)O = inactive
• CC(=O)CCCCn1c(=O)c2c(ncn2C)n(C)c1=O = inactive
• C=CC(=O)OCCOC(=O)CCC(=O)O = active
• N=c1ccn2c(n1)O[C@H]1[C@H](O)[C@@H](CO)O[C@H]12 = inactive
• CO[C@@]1(NC(=O)CSCC#N)C(=O)N2C(C(=O)O)=C(CSc3nnnn3C)CS[C@@H]21 = inactive
• CC(C)=CCC/C(C)=C/CC/C(C)=C/C(=O)OCC(=O)[C@@]1(O)CC[C@H]2[C@@H]3CCC4=CC(=O)C=C[C@]4(C)[C@H]3[C@@H](O)C[C@@]21C = inactive
• NS(=O)(=O)c1cc(C(=O)NN2C[C@H]3[C@H]4CCC(C4)[C@H]3C2)ccc1Cl = inactive
• CCOCC(O)COc1ccc(NC(=O)CC[S+](C)C)cc1 (configuration not stated) = inactive

====

Biological target: Muscarinic acetylcholine receptor M1 (Homo sapiens) (UniProt P11229)
Sequence (P11229 whole entry, looked up): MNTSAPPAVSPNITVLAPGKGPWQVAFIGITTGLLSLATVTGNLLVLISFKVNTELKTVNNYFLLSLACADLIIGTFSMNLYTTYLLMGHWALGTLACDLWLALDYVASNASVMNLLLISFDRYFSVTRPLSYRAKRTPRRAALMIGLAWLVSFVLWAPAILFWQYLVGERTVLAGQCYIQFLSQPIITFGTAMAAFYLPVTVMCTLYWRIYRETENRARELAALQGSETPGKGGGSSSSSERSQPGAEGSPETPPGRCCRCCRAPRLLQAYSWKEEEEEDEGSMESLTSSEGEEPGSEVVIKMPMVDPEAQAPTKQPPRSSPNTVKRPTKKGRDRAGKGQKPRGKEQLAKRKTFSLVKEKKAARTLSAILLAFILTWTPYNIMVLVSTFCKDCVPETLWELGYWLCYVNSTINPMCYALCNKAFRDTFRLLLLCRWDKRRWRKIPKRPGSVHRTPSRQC
Experiment: Cholinergic receptor muscarinic 1 (CHRM1) small molecule antagonists, cell-based qHTS assay (AID 1963588); also: nearly all actives have a fitted effect of over 40% in size
Settings: CHRM1-CHO antagonist mode, calcium flux fluorescence; series mostly up to 61.5 µM
Records with an inconclusive call do not appear. Activity calls are given as the source filed them. The call rests on the fitted dose curve.
Recorded Metric: outcome

- Cc1oc(-c2ccccc2)nc1CCC(=O)c1ccc(CC2SC(=O)NC2=O)cc1 (stereo not drawn): inactive
- COCC(=O)Nc1c(I)c(C(=O)NCC(O)CO)c(I)c(C(=O)N(C)CC(O)CO)c1I (stereo not drawn): inactive
- Nc1ccc(Cl)c([N+](=O)[O-])c1: inactive
- O=C1Nc2cc(Cl)ccc2Oc2ccccc21: inactive
- C=CC(=O)OCCOCC(CC)(COCCOC(=O)C=C)COCCOC(=O)C=C: inactive
- COCCOCC(OC)OC: inactive
- CC(Cl)C(Cl)Cl (stereo not drawn): inactive
- C[Si](NC1CCCCC1)(NC1CCCCC1)NC1CCCCC1: inactive

====

Target: Muscarinic acetylcholine receptor M1 (Homo sapiens)
Test: Cholinergic receptor muscarinic 1 (CHRM1) small molecule antagonists, cell-based qHTS assay (AID 1963588); also: nearly all actives have a fitted effect of over 40% in size
Conditions: CHRM1-CHO antagonist mode, calcium flux fluorescence; series mostly up to 61.5 µM
Records with an inconclusive call do not appear. The source made the active and inactive calls. Calls come from the whole dose curve.
Labels: 1 (yes) for active, 0 (no) for inactive

* Cc1cccc(C)c1NC(=O)CN1CCCC1 | 0 (no)
* CCOc1cc([N+](=O)[O-])c(OCC)cc1N1CCOCC1 | 0 (no)
* CCCCOCC(C)O (centres undefined) | 0 (no)
* CCCC(=O)OCCC(C)C | 0 (no)
* CCCOC(=O)c1ccc(C(=O)OCCC)nc1 | 0 (no)
* CCOc1cc(OCC)c(C(C)=O)cc1OCC | 0 (no)
* CCC(=O)c1cccc(Cl)c1 | 0 (no)
* CCCCC(CC)COC(=O)CC#N (centres undefined) | 0 (no)
* Nc1cnn([C@@H]2O[C@H](CO)[C@@H](O)[C@H]2O)c(=O)n1 | 0 (no)
* CCOc1ccccc1N | 0 (no)
* CC(O)CN(CCCN(C)C)CCCN(C)C (centres undefined) | 0 (no)
* COc1cc2c(cc1OC)C(C(C(=O)N(CCc1ccc(OC)c(OC)c1OC)CCc1ccc(OC)c(OC)c1OC)c1ccccc1)=NCC2 (centres undefined) | 0 (no)
* O=C(O)c1ccc2cc(O)ccc2c1 | 0 (no)
* CC(Oc1cc(Cl)ccc1Cl)C(=O)O (centres undefined) | 0 (no)
* CN=C(NC#N)NCCSCc1csc(N=C(N)N)n1 | 0 (no)
* CN1CCCN=C1COC(=O)C(O)(c1ccccc1)C1CCCCC1 (centres undefined) | 1 (yes)
* Cc1cc(N)c(S(=O)(=O)O)cc1Cl | 0 (no)
* CC(=O)C1CCCCC1=O (centres undefined) | 0 (no)
* C=C(C)c1ccccc1 | 0 (no)
* CCOC(=O)Nc1ccc(NCc2ccc(F)cc2)nc1N | 0 (no)
* CCN(CC)c1cccc(C)c1 | 0 (no)
* c1ccc(CNc2ncnc3nc[nH]c23)cc1 | 0 (no)
* O=C1CCCc2c(O)cccc21 | 1 (yes)
* CCOC(=O)C(C)(C)C | 0 (no)
